pIC50: −log10 of the molar value. Structures can show the parent of a compound that is named as a salt.
Let's go through some pIC50 measurements on JAK3 (Homo sapiens (Human), UniProt P52333) together.
Sequence (P52333 whole entry, species assumed): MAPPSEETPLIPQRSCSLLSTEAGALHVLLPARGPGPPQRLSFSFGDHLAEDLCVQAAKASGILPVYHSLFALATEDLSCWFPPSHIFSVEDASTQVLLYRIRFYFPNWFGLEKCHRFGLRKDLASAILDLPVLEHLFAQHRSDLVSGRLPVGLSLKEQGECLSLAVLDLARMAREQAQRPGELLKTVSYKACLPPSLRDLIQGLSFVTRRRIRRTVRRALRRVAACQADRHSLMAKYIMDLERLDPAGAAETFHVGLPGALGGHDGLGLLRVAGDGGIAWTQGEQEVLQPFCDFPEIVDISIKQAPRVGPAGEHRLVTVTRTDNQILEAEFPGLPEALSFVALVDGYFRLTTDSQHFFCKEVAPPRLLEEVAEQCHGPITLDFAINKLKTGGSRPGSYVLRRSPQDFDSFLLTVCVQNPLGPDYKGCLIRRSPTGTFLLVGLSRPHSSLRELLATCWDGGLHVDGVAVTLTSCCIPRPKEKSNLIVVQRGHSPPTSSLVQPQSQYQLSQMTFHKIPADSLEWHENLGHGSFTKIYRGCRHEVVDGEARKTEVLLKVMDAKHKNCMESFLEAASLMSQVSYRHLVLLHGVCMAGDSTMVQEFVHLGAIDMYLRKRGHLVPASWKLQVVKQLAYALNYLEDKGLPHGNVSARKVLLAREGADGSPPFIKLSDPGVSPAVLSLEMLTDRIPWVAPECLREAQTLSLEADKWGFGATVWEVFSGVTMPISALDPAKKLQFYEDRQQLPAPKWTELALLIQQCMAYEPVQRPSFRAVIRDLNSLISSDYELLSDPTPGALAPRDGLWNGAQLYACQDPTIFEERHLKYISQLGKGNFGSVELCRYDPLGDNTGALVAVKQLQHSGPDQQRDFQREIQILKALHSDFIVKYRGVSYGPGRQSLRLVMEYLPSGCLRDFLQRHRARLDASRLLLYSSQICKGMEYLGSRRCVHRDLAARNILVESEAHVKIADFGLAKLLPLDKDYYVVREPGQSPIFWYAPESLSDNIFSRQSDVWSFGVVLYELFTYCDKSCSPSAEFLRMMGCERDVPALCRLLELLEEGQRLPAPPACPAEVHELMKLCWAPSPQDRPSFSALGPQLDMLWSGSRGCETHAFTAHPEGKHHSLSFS

[
  {
    "Molecule": "CCc1cc(O)ccc1-c1cc2[nH]ncc2c(N2CC(Oc3cc(C#N)ccc3Cl)C2)n1 [Example 120, formate]",
    "pIC50": 7.05
  },
  {
    "Molecule": "CCc1cc(O)c(F)cc1-c1cc2[nH]ncc2c(N(CC)Cc2cc(C)ccc2N(C)S(C)(=O)=O)n1",
    "pIC50": 6.91
  },
  {
    "Molecule": "CNC(=O)c1n[nH]c2cc(-c3cc(F)c(O)cc3CC(F)(F)F)nc(NCc3ccccc3N(C)S(=O)(=O)CCOC)c12",
    "pIC50": 6.94
  },
  {
    "Molecule": "CCN(c1ncccc1CNc1nc(-c2cc(F)c(O)cc2CC(F)(F)F)cc2[nH]nc(C(=O)NC)c12)S(C)(=O)=O",
    "pIC50": 7.09
  }
]
